Test system: 227483-062-R1-J1-PDC complex spheroids with HUVEC/MSC, viability;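 also: spheroids exposed to compounds for seven days before readout; percent of DMSO vehicle control luminescence as 100% viability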
Test: Anticancer human tumor 227483-062-R1-J1-PDC patient-derived pancreatic carcinoma cell line growth inhibition [CLK]
Conditions: second compound 0.0316 µM; first compound 0.1 µM; stronger effect = lower value
The following compounds are shown together with reported viability, T/C values.
The figure you give is taken to be in %; do not add the unit.

Worked examples follow.
INSERT INTO measurements (compound, measurement_name, reported) VALUES
  ('Nc1ccccc1NC(=O)c1ccc(CNC(=O)OCc2cccnc2)cc1 + CNC(=O)c1ccc(Nc2nc(OC3CCCC3)c3c(-c4ccc5nc(C)oc5c4)c[nH]c3n2)c(OC)c1', 'viability, T/C', 88.5),
  ('Nc1ccn(C2OC(CO)C(O)C2(F)F)c(=O)n1 (stereo not drawn) + CN1CCN(c2cc(C(=O)Nc3cc4cc(-c5cnn(C)c5)ccc4cn3)ccn2)CC1', 'viability, T/C', 39);

From here, focus on the item given below.
viability, T/C recorded for this compound, CCN1CCN(Cc2ccc(Nc3ncc(F)c(-c4cc(F)c5nc(C)n(C(C)C)c5c4)n3)nc2)CC1 + CN1CCN(c2cc(C(=O)Nc3cc4cc(-c5cnn(C)c5)ccc4cn3)ccn2)CC1 , is 93.4

Hello, the source for this data is PubChem BioAssay AID2060623, in case you need it.
